- tgt: KLH (Keyhole Limpet Hemocyanin) (keyhole limpet)
- assay.comment: ELISA on KLH

binder	EC50 [nM]
NGS602-OLIGO_12 (VHH) VHH: QVQLVESGGGSVQAGGSLRLSCAASGRTFGRHVMAWFRQAPGREREFVAAISGNGRVTNYALSMKGRFTISRDNANDMVYLQMDGLKPEDTAVYSCATRMAFDSDSNFPATYDVWGQGTQVTVSS	0.181
NGS602-OLIGO_72 (VHH) VHH: QVELVESGGALVQAGGSLKLSCVDSGRSFSSYVVAWFRQAPGKEREFVARVSASGAIRTYADSVRGRFTISRDNTKATVYLQMNSLKSEDTAVFFCAAGGVSTAVHPFKPTSYDFWGQGTQVTVSV	0.072
NGS602-OLIGO_55 (VHH) VHH: QVQLTESGGGLVQAGASLRLSCVASPDTPSTYTIAWFRRAPGKERDFVANIARAGTTITYADSVKGRFTISKDNARNTVYLQMNNLTPADTAIYYCAAYSPGSIIARDSTQYRYWGQGTRVTVSE	0.241
